system: 252836-082-R-J2-PDC tumor spheroids, viability; test: Anticancer human tumor 252836-082-R-J2-PDC patient-derived head and neck squamous cell carcinoma cell line growth inhibition [PI3K]; details: second compound 0.00316 µM; first compound 10 µM; spheroids with HUVEC and MSC; active = viability on the fitted dose curve at most 10% of control; inactive = the rest;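 note: spheroids exposed to agents for seven days before readout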
Return exactly one item of active, inactive

Examples from the recorded data:
C#Cc1c(F)ccc2cc(O)cc(-c3ncc4c(N5CC6CCC(C5)N6)nc(OCC56CCCN5CC(F)C6)nc4c3F)c12 (stereo not drawn) + COc1c(OCCCN2CCOCC2)ccc2c3n(c(=NC(=O)c4cnc(N)nc4)nc12)CCN3
inactive
CCCS(=O)(=O)Nc1ccc(F)c(C(=O)c2c[nH]c3ncc(-c4ccc(Cl)cc4)cc23)c1F + CC(Nc1ccc2c(c1)OCCn1cc(N3C(=O)OCC3C(F)F)nc1-2)C(N)=O
active

Could you check what this test reported for Cn1ncc(Cl)c1-c1cc(C(=O)NC(CN)Cc2cccc(F)c2)sc1Cl (stereo not drawn) + CC(Nc1ccc2c(c1)OCCn1cc(N3C(=O)OCC3C(F)F)nc1-2)C(N)=O ?
inactive
